- TESTED TARGET: RET kinase M918T (Homo sapiens, UniProt P07949, M918T)
- Sequence (P07949 29-1114 M918T): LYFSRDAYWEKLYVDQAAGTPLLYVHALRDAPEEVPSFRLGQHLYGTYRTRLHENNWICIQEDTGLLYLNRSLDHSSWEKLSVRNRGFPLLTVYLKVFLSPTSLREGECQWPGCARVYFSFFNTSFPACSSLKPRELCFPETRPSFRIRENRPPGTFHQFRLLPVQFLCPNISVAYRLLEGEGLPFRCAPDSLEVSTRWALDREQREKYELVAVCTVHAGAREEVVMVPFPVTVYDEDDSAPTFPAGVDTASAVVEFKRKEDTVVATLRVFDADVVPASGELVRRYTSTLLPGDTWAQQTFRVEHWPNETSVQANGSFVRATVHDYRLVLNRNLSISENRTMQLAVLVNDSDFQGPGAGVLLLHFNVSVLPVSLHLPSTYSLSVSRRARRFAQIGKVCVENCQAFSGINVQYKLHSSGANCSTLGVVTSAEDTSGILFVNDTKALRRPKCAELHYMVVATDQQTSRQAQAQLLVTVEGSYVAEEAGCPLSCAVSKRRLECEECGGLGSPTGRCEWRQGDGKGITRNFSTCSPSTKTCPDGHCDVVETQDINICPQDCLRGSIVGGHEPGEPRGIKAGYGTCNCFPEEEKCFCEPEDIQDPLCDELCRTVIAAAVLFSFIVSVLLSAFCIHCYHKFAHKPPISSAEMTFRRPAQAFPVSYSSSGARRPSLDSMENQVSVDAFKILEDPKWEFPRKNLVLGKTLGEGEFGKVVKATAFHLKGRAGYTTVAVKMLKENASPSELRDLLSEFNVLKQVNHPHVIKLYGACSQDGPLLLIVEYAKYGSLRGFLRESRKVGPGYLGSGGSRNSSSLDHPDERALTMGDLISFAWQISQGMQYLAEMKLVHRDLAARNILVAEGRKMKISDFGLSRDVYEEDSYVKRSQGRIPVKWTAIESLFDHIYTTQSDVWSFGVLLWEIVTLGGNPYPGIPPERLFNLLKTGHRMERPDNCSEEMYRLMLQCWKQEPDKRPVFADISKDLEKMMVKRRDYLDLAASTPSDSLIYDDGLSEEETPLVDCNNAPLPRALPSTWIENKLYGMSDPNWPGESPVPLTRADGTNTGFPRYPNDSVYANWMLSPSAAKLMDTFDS
- ASSAY INFO: RET Enzyme Assay (HTRF KinEASE-TK), M918T
Exercise: state measured log10(IC50) for each of the compounds provided.
// stored as log10 of IC50 expressed in nM

Qu. Recall and state the measured log10(IC50) for CC(C)n1nc(-c2noc(C3CC3)c2Br)c2c(N)ncnc21 .
Ans. 0.26

Qu. Recall and state the measured log10(IC50) for CC(C)n1nc(-c2noc(C3CC3)c2I)c2c(N)ncnc21 .
Ans. 0.61

Qu. Recall and state the measured log10(IC50) for CC(C)n1nc(-c2noc(C3CC3)c2C2=CCC(=O)CC2)c2c(N)ncnc21 .
Ans. 0.51

Qu. Recall and state the measured log10(IC50) for CC(C)n1nc(-c2noc(C3CC3)c2C2=CCOCC2)c2c(N)ncnc21 .
Ans. 0.88

Qu. Recall and state the measured log10(IC50) for CC(C)n1nc(-c2noc([C@@H](C)O)c2-c2ccccn2)c2c(N)ncnc21 .
Ans. 0.00

Qu. Recall and state the measured log10(IC50) for CC(C)n1nc(-c2noc(C3CC3)c2C2=CCC(C)(O)CC2)c2c(N)ncnc21 (stereo not drawn) .
Ans. 0.20

Qu. Recall and state the measured log10(IC50) for CC(C)n1nc(-c2noc(C3CC3)c2C2=CCCCO2)c2c(N)ncnc21 .
Ans. -0.70

Qu. Recall and state the measured log10(IC50) for C=Cc1cc(-c2nn(C(C)C)c3ncnc(N)c23)n(C2CCCCO2)n1 (stereo not drawn) .
Ans. 0.48

Qu. Recall and state the measured log10(IC50) for CC(C)n1nc(-c2noc(C3CC3)c2-c2ccccc2)c2c(N)ncnc21 .
Ans. 0.65

---

- TESTED TARGET: HEK-293 cells expressing a Kif5b-RET fusion protein (Homo sapiens, UniProt P07949)
- Construct: the other entry of the earlier key: KIF5B (P33176, Kinesin-1 heavy chain)
- Sequence (P07949 713-1063 limits assumed): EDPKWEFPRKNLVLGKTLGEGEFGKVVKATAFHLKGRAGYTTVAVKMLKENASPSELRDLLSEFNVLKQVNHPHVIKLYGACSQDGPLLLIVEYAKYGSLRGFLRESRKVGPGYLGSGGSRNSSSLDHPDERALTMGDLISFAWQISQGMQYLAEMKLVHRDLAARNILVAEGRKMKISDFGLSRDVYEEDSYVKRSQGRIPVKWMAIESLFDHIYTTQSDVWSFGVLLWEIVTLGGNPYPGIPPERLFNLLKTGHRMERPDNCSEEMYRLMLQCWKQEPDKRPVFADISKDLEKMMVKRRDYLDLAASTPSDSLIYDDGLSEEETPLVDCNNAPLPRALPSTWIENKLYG
- ASSAY INFO: RET Cell Assay (phospho-RET Tyr1062)
- MEASUREMENT CONDITIONS: 1 hour with compound, phospho-RET(Tyr1062) normalized to GAPDH, read-out: KIF5B-RET pTYR1062 Cell IC50
Exercise: state measured IC50 for each of the molecules provided.
Report the value in µM with no unit label.

Qu. Recall and state the measured IC50 for CC(C)n1nc(-c2noc(C3CC3)c2C2=CCC(C)(O)CC2)c2c(N)ncnc21 (stereo not drawn) [Example 15] .
Ans. 0.042

Qu. Recall and state the measured IC50 for CC(C)n1nc(-c2noc([C@@H](C)O)c2-c2ccccn2)c2c(N)ncnc21 [Example 18] .
Ans. 0.042

Qu. Recall and state the measured IC50 for CC(C)n1nc(-c2noc(C3CC3)c2-c2ccccc2)c2c(N)ncnc21 [Example 6] .
Ans. 0.488

Qu. Recall and state the measured IC50 for CC(C)n1nc(-c2noc(C3CC3)c2C2=CCC(O)CC2)c2c(N)ncnc21 (stereo not drawn) [Example 14] .
Ans. 0.035

Qu. Recall and state the measured IC50 for CC(C)n1nc(-c2cc(C3CC3)nn2C2CCCCO2)c2c(N)ncnc21 (stereo not drawn) [Example 19] .
Ans. 0.04

Qu. Recall and state the measured IC50 for CC(C)n1nc(-c2noc(C3CC3)c2Br)c2c(N)ncnc21 [Example 1] .
Ans. 0.263
